Catalogue of Activity readings, one per entry.
Test system: Botrytis cinerea
ASSAY_INFO: Fungicidal activity against benzimidazole-resistant Botryotinia fuckeliana at 25 ppm after 48 hr by poisoned food technique
Assay type: functional

Please review the following examples before continuing.
CCO/N=C/Nc1c(Cl)cc(Cl)cc1Cl | <25%
CCO/N=C/Nc1c(Cl)c(Cl)cc(Cl)c1Cl | <25%
CCO/N=C/Nc1cc(Cl)ccc1Cl | <25%
CCO/N=C/Nc1c(C)cccc1C | <25%

input: Query: Activity; subject: "CCO/N=C/Nc1ccc(OCC)cc1"
output: <25%

input: Query: Activity; subject: "CCO/N=C/Nc1ccc(Cl)cc1C"
output: <25%
